- test_name: Aqueous hydrolysis of the compound at pH 5 at 20 degC
- Format: physicochemical
- condition_label: aqueous solution, read-out: DT50 (converted)
parameter_measured: half-life (days)
The response must be a number in days with no trailing unit.

// field: half-life; key: CCc1cc(C)cc(CC)c1-c1c(OC(=O)C(C)(C)C)n2n(c1=O)CCOCC2 ; value = 25.3

====

In this section, each of the compounds is paired with its reported Activity.
- Test system: Setaria faberi
- test_name: Herbicidal activity against Setaria faberi (Giant Foxtail) assessed as weed control at 30 g/ha under greenhouse measured after 21 days by post-emergence test
- Format: functional
The number alone won't do; follow it with the unit.

• CCc1cc(C)cc(CC)c1C1C(=O)N2CCOC(C)CN2C1=O (stereo not given) = 90%
• CCc1cc(C)cc(CC)c1C1C(=O)N2CC(C)OC(C)CN2C1=O (stereo not given) = 90%
• CCc1cc(C)cc(CC)c1C1C(=O)N2CCOCCN2C1=O [PINOXADEN DIONE] = 90%
• CCc1cc(C)cc(CC)c1C1C(=O)N2COC(C)CN2C1=O (stereo not given) = 90%
• Cc1cc(C)c(C2C(=O)N3CCOCCN3C2=O)c(C2CC2)c1 = 60%
• CCc1cc(C)cc(CC)c1C1C(=O)N2CCC(C)(O)CCN2C1=O = 90%

Form field Activity, entry CCc1cc(C)cc(C)c1C1C(=O)N2CCOCCN2C1=O : 60%

Recorded result, CCc1cc(-c2ccccc2)cc(OC)c1C1C(=O)N2CCOCCN2C1=O , Activity: 90%

Per the record, C#Cc1cc(C)cc(C#C)c1C1C(=O)N2CCOCCN2C1=O has Activity of 90%

The value of Activity measured for the compound CCc1cc(C)cc(CC)c1C1C(=O)N2CCC(O)CCN2C1=O turned out to be 90%
